src = patent US4755509A

# studyTarget: aldose reductase (Rattus norvegicus, UniProt P07943)
# Construct: rat lens homogenate used as a source of enzyme; from tissue; host or cells: rat lens homogenate
# methodDescription: in vitro inhibition of aldose reductase from rat lens homogenate (DL-glyceraldehyde substrate, NADPH, spectrophotometry at 340 nm)
# Type: biochemical
# assaySetup: concentration 10^-4 mol/liter; read-out: Inhibition relative to the control activity, %
Where a name gives a salt, the structure may show the parent alone.
For each of the molecules below, state its inhibition at 100 µM.
All answers are understood in %, so give the number only.

# molecule O=C(O)CN1C(=S)COc2ccc(F)cc21 [Example 152] ; its inhibition at 100 µM = 100

# molecule O=C(O)CN1C(=O)CNc2ncccc21 [Example 114, hydrochloride] ; its inhibition at 100 µM = 95

# molecule O=C(O)CN1C(=O)CSc2ccccc21 [Example 124, 2H-1,4-Benzothiazin-3-one-4-acetic acid] ; its inhibition at 100 µM = 97

# molecule O=C(O)CN1C(=O)CSc2ncccc21 [Example 110] ; its inhibition at 100 µM = 95

# molecule O=C(O)CN1C(=O)CSc2cc(Cl)ccc21 [Example 121] ; its inhibition at 100 µM = 97

# molecule O=C(O)CN1C(=O)CSc2ccc(C(F)(F)F)cc21 [Example 115] ; its inhibition at 100 µM = 90

# molecule O=C(O)CN1C(=S)CSc2ccc(F)cc21 [Example 119] ; its inhibition at 100 µM = 100

# molecule CC1(c2ccccn2)Sc2ccccc2N(CC(=O)O)C1=O (centres unmarked) [Example 151] ; its inhibition at 100 µM = 96

# molecule O=C(O)CN1C(=O)CSc2cc(Cl)c(C(F)(F)F)cc21 [Example 123] ; its inhibition at 100 µM = 97

# molecule O=C(O)CN1C(=O)CSc2cc(F)ccc21 [Example 116] ; its inhibition at 100 µM = 100

# molecule O=C(O)CN1C(=O)CSc2nc(Cl)ccc21 [Example 111] ; its inhibition at 100 µM = 96

# molecule O=C(O)CN1C(=S)CSc2cc(F)ccc21 [Example 117] ; its inhibition at 100 µM = 100

# molecule CC1Sc2ccccc2N(CC(=O)O)C1=O (centres unmarked) [Example 125] ; its inhibition at 100 µM = 99

# molecule O=C(O)CN1C(=O)CSc2ccc(F)cc21 [Example 118] ; its inhibition at 100 µM = 98

###

# studyTarget: aldose reductase (Rattus norvegicus)
# Construct: rat lens homogenate used as a source of enzyme; from tissue; host or cells: rat lens homogenate
# methodDescription: in vitro inhibition of aldose reductase from rat lens homogenate (DL-glyceraldehyde substrate, NADPH, spectrophotometry at 340 nm)
# Format: biochemical
# assaySetup: concentration 10^-6 mol/liter; read-out: Inhibition relative to the control activity, %
Structures can show the parent of a compound that is named as a salt.
observationType: inhibition at 1 µM (%)
All answers are understood in %, so give the number only.

# compound O=C(O)CN1C(=O)CSc2ncccc21 [Example 110] ; its inhibition at 1 µM = 37

# compound O=C(O)CN1C(=O)CSc2ccc(F)cc21 [Example 118] ; its inhibition at 1 µM = 10

# compound O=C(O)CN1C(=O)CNc2ncccc21 [Example 114, hydrochloride] ; its inhibition at 1 µM = 6

# compound O=C(O)CN1C(=O)CSc2cc(F)ccc21 [Example 116] ; its inhibition at 1 µM = 25

###

# studyTarget: aldose reductase (Rattus norvegicus, UniProt P07943)
# Construct: rat lens homogenate used as a source of enzyme; from tissue; host or cells: rat lens homogenate
# methodDescription: in vitro inhibition of aldose reductase from rat lens homogenate (DL-glyceraldehyde substrate, NADPH, spectrophotometry at 340 nm)
# Format: biochemical
# assaySetup: concentration 10^-5 mol/liter; read-out: Inhibition relative to the control activity, %
For each of the molecules below, state its inhibition at 10 µM.
All answers are understood in %, so give the number only.

# lookup: CC1Sc2ccccc2N(CC(=O)O)C1=O (centres unmarked) on aldose reductase (Rattus norvegicus, UniProt P07943), inhibition at 10 µM = 91

# lookup: "O=C(O)CN1C(=O)CSc2cc(Cl)c(C(F)(F)F)cc21" on aldose reductase (Rattus norvegicus, UniProt P07943), inhibition at 10 µM = 81

# lookup: "O=C(O)CN1C(=S)CSc2cc(Cl)ccc21" on aldose reductase (Rattus norvegicus, UniProt P07943), inhibition at 10 µM = 98

# lookup: "O=C(O)CN1C(=O)CSc2cc(Cl)ccc21" on aldose reductase (Rattus norvegicus, UniProt P07943), inhibition at 10 µM = 92

# lookup: CC1Sc2ccc(F)cc2N(CC(=O)O)C1=S (centres unmarked) on aldose reductase (Rattus norvegicus, UniProt P07943), inhibition at 10 µM = 94

# lookup: "O=C(O)CN1C(=O)CSc2nc(Cl)ccc21" on aldose reductase (Rattus norvegicus, UniProt P07943), inhibition at 10 µM = 80

# lookup: "O=C(O)CN1C(=O)CSc2cc(F)ccc21" on aldose reductase (Rattus norvegicus, UniProt P07943), inhibition at 10 µM = 95

# lookup: "O=C(O)CN1C(=S)COc2ccc(F)cc21" on aldose reductase (Rattus norvegicus, UniProt P07943), inhibition at 10 µM = 99

# lookup: "O=C(O)CN1C(=O)CSc2ccc(C(F)(F)F)cc21" on aldose reductase (Rattus norvegicus, UniProt P07943), inhibition at 10 µM = 57

# lookup: "O=C(O)CN1C(=S)CSc2ccc(F)cc21" on aldose reductase (Rattus norvegicus, UniProt P07943), inhibition at 10 µM = 98

# lookup: "O=C(O)CN1C(=O)CSc2ncccc21" on aldose reductase (Rattus norvegicus, UniProt P07943), inhibition at 10 µM = 82

# lookup: O=C(O)CN1C(=S)C(c2ccccc2)Sc2ccccc21 (centres unmarked) on aldose reductase (Rattus norvegicus, UniProt P07943), inhibition at 10 µM = 99

# lookup: CC1(c2ccccn2)Sc2ccccc2N(CC(=O)O)C1=O (centres unmarked) on aldose reductase (Rattus norvegicus, UniProt P07943), inhibition at 10 µM = 73

# lookup: CC1Sc2ccc(F)cc2N(CC(=O)O)C1=O (centres unmarked) on aldose reductase (Rattus norvegicus, UniProt P07943), inhibition at 10 µM = 95

# lookup: "O=C(O)CN1C(=S)CSc2ccccc21" on aldose reductase (Rattus norvegicus, UniProt P07943), inhibition at 10 µM = 98

# lookup: "O=C(O)CN1C(=O)CSc2ccc(F)cc21" on aldose reductase (Rattus norvegicus, UniProt P07943), inhibition at 10 µM = 91

# lookup: "O=C(O)CN1C(=S)CSc2cc(F)ccc21" on aldose reductase (Rattus norvegicus, UniProt P07943), inhibition at 10 µM = 100

###

# studyTarget: aldose reductase (Rattus norvegicus, UniProt P07943)
# Construct: rat lens homogenate used as a source of enzyme; from tissue; host or cells: rat lens homogenate
# methodDescription: in vitro inhibition of aldose reductase from rat lens homogenate (DL-glyceraldehyde substrate, NADPH, spectrophotometry at 340 nm)
# Type: biochemical
# assaySetup: concentration 10^-7 mol/liter; read-out: Inhibition relative to the control activity, %
Give YES when the value for inhibition at 0.1 µM is at least 70%. Give NO when it is less.

Exercise: Does the reported inhibition at 0.1 µM for "O=C(O)CN1C(=S)CCc2cc(Cl)ccc21" fall at or above the 70% mark?
Key: NO

Exercise: Does the reported inhibition at 0.1 µM for CC1Sc2ccccc2N(CC(=O)O)C1=S (stereo not drawn) fall at or above the 70% mark?
Key: YES

Exercise: Does the reported inhibition at 0.1 µM for "O=C(O)CN1C(=S)CSc2cc(F)ccc21" fall at or above the 70% mark?
Key: NO

Exercise: Does the reported inhibition at 0.1 µM for "O=C(O)CN1C(=O)CSc2cc(Cl)ccc21" fall at or above the 70% mark?
Key: NO

Exercise: Does the reported inhibition at 0.1 µM for "O=C(O)CN1C(=O)CSc2cc(Cl)c(C(F)(F)F)cc21" fall at or above the 70% mark?
Key: NO

Exercise: Does the reported inhibition at 0.1 µM for "O=C(O)CN1C(=O)CSc2ccc(C(F)(F)F)cc21" fall at or above the 70% mark?
Key: NO

Exercise: Does the reported inhibition at 0.1 µM for CC1Sc2ccc(F)cc2N(CC(=O)O)C1=O (stereo not drawn) fall at or above the 70% mark?
Key: NO

Exercise: Does the reported inhibition at 0.1 µM for O=C(O)CN1C(=S)C(c2ccccc2)Sc2ccccc21 (stereo not drawn) fall at or above the 70% mark?
Key: YES

Exercise: Does the reported inhibition at 0.1 µM for "O=C(O)CN1C(=O)CSc2ccccc21" fall at or above the 70% mark?
Key: NO

Exercise: Does the reported inhibition at 0.1 µM for "O=C(O)CN1C(=O)CSc2ncccc21" fall at or above the 70% mark?
Key: NO

Exercise: Does the reported inhibition at 0.1 µM for CC1Sc2ccccc2N(CC(=O)O)C1=O (stereo not drawn) fall at or above the 70% mark?
Key: NO

Exercise: Does the reported inhibition at 0.1 µM for "O=C(O)CN1C(=S)CSc2ccc(F)cc21" fall at or above the 70% mark?
Key: NO

Exercise: Does the reported inhibition at 0.1 µM for "O=C(O)CN1C(=S)CSc2cc(Cl)ccc21" fall at or above the 70% mark?
Key: YES

Exercise: Does the reported inhibition at 0.1 µM for "O=C(O)CN1C(=S)COc2ccc(F)cc21" fall at or above the 70% mark?
Key: NO

Exercise: Does the reported inhibition at 0.1 µM for "O=C(O)CN1C(=O)CSc2nc(Cl)ccc21" fall at or above the 70% mark?
Key: NO

Exercise: Does the reported inhibition at 0.1 µM for CC1Sc2ccc(F)cc2N(CC(=O)O)C1=S (stereo not drawn) fall at or above the 70% mark?
Key: YES

Exercise: Does the reported inhibition at 0.1 µM for CC1(c2ccccn2)Sc2ccccc2N(CC(=O)O)C1=O (stereo not drawn) fall at or above the 70% mark?
Key: NO
